molecular target: rat M1 (Rattus norvegicus, UniProt P08482); assay: Calcium mobilization, rM1-CHO cells, PAM mode; format: cell-based; conditions: rM1 EC50 (nM), PAM mode, EC20 acetylcholine
Sequence (P08482 whole entry): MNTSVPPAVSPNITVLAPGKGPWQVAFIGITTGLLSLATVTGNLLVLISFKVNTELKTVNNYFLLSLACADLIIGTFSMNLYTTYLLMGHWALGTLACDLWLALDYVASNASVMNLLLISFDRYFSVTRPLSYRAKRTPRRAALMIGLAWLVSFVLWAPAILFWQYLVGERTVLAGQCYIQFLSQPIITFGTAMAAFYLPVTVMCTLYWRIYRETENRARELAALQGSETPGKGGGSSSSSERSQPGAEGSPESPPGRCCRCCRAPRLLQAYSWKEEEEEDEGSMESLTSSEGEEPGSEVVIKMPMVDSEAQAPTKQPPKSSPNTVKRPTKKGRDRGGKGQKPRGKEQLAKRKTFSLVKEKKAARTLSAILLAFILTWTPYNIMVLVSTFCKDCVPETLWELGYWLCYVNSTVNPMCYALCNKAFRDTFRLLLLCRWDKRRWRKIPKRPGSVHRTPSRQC
quantityMeasured: EC50 (nM)
Provide the reading as a plain figure in nM.

Request: Need EC50 of Cn1cc(-c2ccc(Cn3cc(C(=O)N[C@H]4CCCC[C@@H]4O)c4c(F)cc(F)cc43)cn2)cn1 [Compound 28a] , thanks.
Result: 141

---

biological target: M1 (Homo sapiens); assay: Calcium mobilization, hM1-CHO cells, PAM mode; type: cell-based
Sequence (P11229 whole entry): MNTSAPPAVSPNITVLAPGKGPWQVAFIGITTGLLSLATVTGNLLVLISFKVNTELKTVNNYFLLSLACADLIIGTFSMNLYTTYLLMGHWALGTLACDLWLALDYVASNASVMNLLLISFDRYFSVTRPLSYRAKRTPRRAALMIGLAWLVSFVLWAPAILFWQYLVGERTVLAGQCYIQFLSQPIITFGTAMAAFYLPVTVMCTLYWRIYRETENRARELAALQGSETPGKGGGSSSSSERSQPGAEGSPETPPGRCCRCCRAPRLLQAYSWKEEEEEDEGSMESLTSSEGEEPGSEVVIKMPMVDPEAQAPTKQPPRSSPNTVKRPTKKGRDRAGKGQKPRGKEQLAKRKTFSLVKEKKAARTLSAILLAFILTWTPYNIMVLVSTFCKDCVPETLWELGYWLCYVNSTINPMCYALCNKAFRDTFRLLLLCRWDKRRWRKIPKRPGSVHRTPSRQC
quantityMeasured: EC50 (nM)
Provide the reading as a plain figure in nM.

Request: Need EC50 of Cn1cc(-c2ccc(Cn3cc(C(=O)N[C@H]4CCCC[C@@H]4O)c4c(F)cc(F)cc43)cn2)cn1 [Compound 28a] , thanks.
Result: 214
